- systemUnderTest: human Smo (amino acids 181-787) (Homo sapiens)
- Sequence (Q99835 181-787): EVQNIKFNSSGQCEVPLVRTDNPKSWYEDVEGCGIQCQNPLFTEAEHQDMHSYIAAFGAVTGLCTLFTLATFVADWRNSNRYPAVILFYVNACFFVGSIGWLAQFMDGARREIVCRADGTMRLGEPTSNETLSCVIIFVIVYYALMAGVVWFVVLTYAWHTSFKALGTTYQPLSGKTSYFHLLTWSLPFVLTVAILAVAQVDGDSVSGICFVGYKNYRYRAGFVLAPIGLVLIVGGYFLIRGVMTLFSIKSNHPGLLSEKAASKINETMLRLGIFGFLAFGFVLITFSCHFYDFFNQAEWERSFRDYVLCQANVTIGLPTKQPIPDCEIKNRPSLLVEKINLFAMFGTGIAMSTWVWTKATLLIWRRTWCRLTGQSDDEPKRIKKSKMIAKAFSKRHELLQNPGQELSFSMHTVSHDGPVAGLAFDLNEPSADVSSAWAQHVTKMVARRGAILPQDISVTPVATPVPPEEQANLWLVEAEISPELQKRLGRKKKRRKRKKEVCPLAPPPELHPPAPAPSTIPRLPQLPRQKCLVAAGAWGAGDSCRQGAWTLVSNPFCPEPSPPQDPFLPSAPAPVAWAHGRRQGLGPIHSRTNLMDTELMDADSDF
observedProperty: pIC50
One number for each entry, as −log10 of the molar value.

Completed entries (count: 5):
molecule	pIC50
Cn1c(-c2cc(N3CCN(C(=O)CCS(C)(=O)=O)CC3)ncc2F)nc2ccccc21	7.96
Cn1c(-c2cc(N3CCC4(CCCC(=O)N4)CC3)ncc2Cl)nc2ccccc21	7.70
COC(=O)N1CCN(c2cc(-c3nc4ccccc4n3C)c(F)cn2)CC1	7.89
CN(CC(C)(C)O)c1cc(-c2nc3ccccc3n2C)c(Cl)cn1	7.74
Cn1c(-c2cc(N3CCC(CS(C)(=O)=O)CC3)ncc2Cl)nc2cccnc21	8.00

Dear colleague, could you please provide pIC50 for the molecules listed below?
1. Cn1c(-c2cc(N3CCC(CO)C3)ncc2Cl)nc2ccccc21 (centres unmarked)
2. Cn1c(-c2ccnc(N3CCC(NS(C)(=O)=O)CC3)c2)nc2ccccc21
3. Cn1c(-c2cc(N3CCC(NS(C)(=O)=O)C3)ncc2Cl)nc2ccccc21 (centres unmarked)

1: 7.04; 2: 7.89; 3: 7.64

---

- systemUnderTest: human Smo (amino acids 181-787) (Homo sapiens)
- Construct: expressed in transfected cells; membrane preparation
- experimentSummary: Smo radioligand competition binding assay (displacement of 3H-PF-03451358 from HEK293 membranes)
- conditionsUsed: 0.05 μM test compound; displacement of 3H-PF-03451358; read-out: SMO % inh. @ 0.05 μM
Structures can show the parent of a compound that is named as a salt.
So basically: inhibition at 0.05 µM at 90% or higher? That is y. Lower than 90%? That is n.

Example cases with answers are listed next.
compound	labelClass
Cn1c(-c2nc(N3CCNCC3)ccc2Cl)nc2ccccc21 [Example B-1, formate salt]	n
Cn1c(-c2nc(N3CCC(NS(C)(=O)=O)CC3)ncc2Cl)nc2ccccc21	y
CNC(=O)N1CCN(c2cc(-c3nc4ccccc4n3C)c(Cl)cn2)CC1	y
COC(=O)N1CCN(c2cccc(-c3nc4ccccc4n3C)n2)CC1	n
Cn1c(-c2cc(N3[C@@H]4CC[C@H]3CN(C(=O)CO)C4)ncc2Cl)nc2ccccc21	y

Textbook exercise: given the entry Cn1c(-c2cc(N3CC(NS(C)(=O)=O)C3)ncc2Cl)nc2ccccc21 , state whether its inhibition at 0.05 µM is greater than or equal to 90%. y

Textbook exercise: given the entry CC(=O)N(C)C1CN(c2cc(-c3nc4ccccc4n3C)c(Cl)cn2)C1 , state whether its inhibition at 0.05 µM is greater than or equal to 90%. n

Textbook exercise: given the entry Cc1nccn1CC1(O)CCN(c2cc(-c3nc4ccccc4n3C)c(Cl)cn2)C1 (stereo not shown) , state whether its inhibition at 0.05 µM is greater than or equal to 90%. n

Textbook exercise: given the entry COCC(=O)N1CCN(c2ncc(Cl)c(-c3nc4ccccc4n3C)n2)CC1 , state whether its inhibition at 0.05 µM is greater than or equal to 90%. y

Textbook exercise: given the entry CC(=O)NC1CCN(c2ccc(Cl)c(-c3nc4ccccc4n3C)n2)CC1 , state whether its inhibition at 0.05 µM is greater than or equal to 90%. y

Textbook exercise: given the entry Cn1c(-c2cc(N3CCN4C[C@H](O)CC4C3)ncc2Cl)nc2ccccc21 (stereo in doubt) [Example A-60] , state whether its inhibition at 0.05 µM is greater than or equal to 90%. y

Textbook exercise: given the entry Cn1c(-c2cc(N3CCNC(=O)CC3)ncc2Cl)nc2ccccc21 , state whether its inhibition at 0.05 µM is greater than or equal to 90%. y

Textbook exercise: given the entry CN(CCNS(C)(=O)=O)c1cc(-c2nc3ccccc3n2C)c(Cl)cn1 , state whether its inhibition at 0.05 µM is greater than or equal to 90%. y

Textbook exercise: given the entry Cn1c(-c2cc(N3CCC(O)(c4ccn[nH]4)C3)ncc2Cl)nc2ccccc21 (stereo not shown) , state whether its inhibition at 0.05 µM is greater than or equal to 90%. n

Textbook exercise: given the entry Cn1c(-c2cc(N3CCC(O)(c4ncccn4)C3)ncc2Cl)nc2ccccc21 (stereo not shown) , state whether its inhibition at 0.05 µM is greater than or equal to 90%. n

Textbook exercise: given the entry CCNC(=O)N1CCN(c2cc(-c3nc4ccccc4n3C)c(F)cn2)CC1 , state whether its inhibition at 0.05 µM is greater than or equal to 90%. y

Textbook exercise: given the entry Cn1c(-c2cc(N3CC[C@@H](O)[C@@H](O)C3)ncc2Cl)nc2ccccc21 , state whether its inhibition at 0.05 µM is greater than or equal to 90%. n

Textbook exercise: given the entry CNC(=O)c1[nH]nc2c1CN(c1cc(-c3nc4ccccc4n3C)c(Cl)cn1)CC2 , state whether its inhibition at 0.05 µM is greater than or equal to 90%. n

Textbook exercise: given the entry CNC(=O)N(C)C1CN(c2cc(-c3nc4ccccc4n3C)c(Cl)cn2)C1 , state whether its inhibition at 0.05 µM is greater than or equal to 90%. n

Textbook exercise: given the entry Cn1c(-c2cc(N3CCn4cnnc4C3)ncc2Cl)nc2ccccc21 , state whether its inhibition at 0.05 µM is greater than or equal to 90%. n
